Test system: Fusobacterium nucleatum subsp. animalis
Experiment: growth AUC relative to DMSO control (median of replicates) (fraction); higher = more growth (less inhibition), active = hit call of the paper
Settings: 20 µM; 24 h
Tag: yes if measured growth AUC is not below 1, no if it is.

[
  {
    "molecule": "N#CN=C1SCCN1Cc1ccc(Cl)nc1",
    "assigned.category": "yes"
  },
  {
    "molecule": "CCc1ccc(C(=O)NN(C(=O)c2cc(C)cc(C)c2)C(C)(C)C)cc1",
    "assigned.category": "no"
  },
  {
    "molecule": "CC(C)c1ccc(NC(=O)N(C)C)cc1",
    "assigned.category": "yes"
  },
  {
    "molecule": "CS(=O)(=O)c1ccc(C(=O)C2C(=O)CCCC2=O)c(Cl)c1COCC(F)(F)F",
    "assigned.category": "yes"
  },
  {
    "molecule": "COCC(C)N(C(=O)CCl)c1c(C)csc1C (stereo not given)",
    "assigned.category": "no"
  },
  {
    "molecule": "CN(C)C(=O)Nc1cccc(OC(=O)NC(C)(C)C)c1",
    "assigned.category": "yes"
  },
  {
    "molecule": "C=CCC1=C(C)C(OC(=O)C2C(C=C(C)C)C2(C)C)CC1=O (stereo not given)",
    "assigned.category": "no"
  },
  {
    "molecule": "CCNc1nc(NCC)nc(SC)n1",
    "assigned.category": "yes"
  },
  {
    "molecule": "COC(=O)COc1ccc(Cl)cc1Cl",
    "assigned.category": "no"
  },
  {
    "molecule": "O=[N+]([O-])c1ccccc1",
    "assigned.category": "yes"
  },
  {
    "molecule": "CCOP(=S)(OCC)SCSP(=S)(OCC)OCC",
    "assigned.category": "yes"
  },
  {
    "molecule": "Oc1cccc2cccnc12",
    "assigned.category": "yes"
  },
  {
    "molecule": "CCOC(=O)OC1=C(c2cc(C)ccc2C)C(=O)NC12CCC(OC)CC2 (stereo not given)",
    "assigned.category": "no"
  },
  {
    "molecule": "Cc1ccn2nc(S(=O)(=O)Nc3c(F)cccc3F)nc2n1",
    "assigned.category": "yes"
  },
  {
    "molecule": "CC[C@H](C)[C@H]1O[C@]2(C=C[C@@H]1C)C[C@@H]1C[C@@H](C/C=C(\\C)[C@@H](O[C@H]3C[C@H](OC)[C@@H](O[C@H]4C[C@H](OC)[C@@H](NC)[C@H](C)O4)[C@H](C)O3)[C@@H](C)/C=C/C=C3\\CO[C@@H]4[C@H](O)C(C)=C[C@@H](C(=O)O1)[C@]34O)O2.O=C(O)c1ccccc1",
    "assigned.category": "no"
  },
  {
    "molecule": "C#CCN1C(=O)COc2cc(F)c(N3C(=O)C4=C(CCCC4)C3=O)cc21",
    "assigned.category": "no"
  },
  {
    "molecule": "COP(=S)(OC)Oc1ccc(S(=O)(=O)N(C)C)cc1",
    "assigned.category": "no"
  },
  {
    "molecule": "N#Cc1sc2c(=O)c3ccccc3c(=O)c=2sc1C#N",
    "assigned.category": "no"
  },
  {
    "molecule": "CNC(=O)N(C)c1nnc(C(C)(C)C)s1",
    "assigned.category": "no"
  },
  {
    "molecule": "Oc1ccc(Cl)c(Cl)c1Cl",
    "assigned.category": "yes"
  },
  {
    "molecule": "CO/C=C(/C(=O)OC)c1ccccc1COc1cccc(C(F)(F)F)n1",
    "assigned.category": "no"
  },
  {
    "molecule": "Nc1c(Cl)cc([N+](=O)[O-])cc1Cl",
    "assigned.category": "no"
  },
  {
    "molecule": "COP(=O)(OC)OC=C(Cl)Cl",
    "assigned.category": "yes"
  },
  {
    "molecule": "CO/N=C(/C(=O)OC)c1ccccc1CO/N=C(\\C)c1cccc(C(F)(F)F)c1",
    "assigned.category": "no"
  },
  {
    "molecule": "C[C@@H](Oc1ccc(Cl)cc1Cl)C(=O)O",
    "assigned.category": "yes"
  },
  {
    "molecule": "O=[N+]([O-])c1ccc(O)c([N+](=O)[O-])c1",
    "assigned.category": "no"
  },
  {
    "molecule": "CC(=O)CC(c1ccc(Cl)cc1)c1c(O)c2ccccc2oc1=O (stereo not given)",
    "assigned.category": "no"
  },
  {
    "molecule": "Cc1cc(Cl)ccc1O[C@H](C)C(=O)O",
    "assigned.category": "yes"
  },
  {
    "molecule": "Cl.NC1=NCCN1Cc1ccc(Cl)nc1",
    "assigned.category": "yes"
  },
  {
    "molecule": "CS(=O)(=O)NC(=O)c1cc(Oc2ccc(C(F)(F)F)cc2Cl)ccc1[N+](=O)[O-]",
    "assigned.category": "no"
  },
  {
    "molecule": "CCN(CC)c1c([N+](=O)[O-])cc(C(F)(F)F)c(N)c1[N+](=O)[O-]",
    "assigned.category": "yes"
  },
  {
    "molecule": "O=C(O)CCl",
    "assigned.category": "no"
  },
  {
    "molecule": "CC(C)N(Cc1ccccc1)C(=O)C(C)(C)C",
    "assigned.category": "no"
  },
  {
    "molecule": "COP(=S)(OC)Oc1cc(Cl)c(I)cc1Cl",
    "assigned.category": "yes"
  },
  {
    "molecule": "COP(=S)(Oc1cc(Cl)c(Br)cc1Cl)c1ccccc1 (stereo not given)",
    "assigned.category": "yes"
  },
  {
    "molecule": "CCOP(=O)(Sc1ccccc1)Sc1ccccc1",
    "assigned.category": "yes"
  },
  {
    "molecule": "COP(=S)(OC)Oc1ccc([N+](=O)[O-])cc1",
    "assigned.category": "yes"
  },
  {
    "molecule": "CON(C)C(=O)Nc1ccc(Cl)cc1",
    "assigned.category": "no"
  }
]
